Numbers sourced from ChEMBL document CHEMBL1201862.

system: SK-MEL-5; assay: NCI tumour cell line growth inhibition, 48 h
Activity calls are given as the source filed them. Rule as the data show it: active = GI50 up to about 1.1 µM and inactive = higher.
List of GI50 values.

O=C(/C=C/c1c(O)nc2ccccc2c1O)CC(=O)C(=O)Nc1cccc(O)c1 ... > 100 µM (inactive)
COC(=O)[C@@H](NC(=O)N(Cc1ccccc1)C[C@H](CC(C)C)NC(=O)[C@@H](NC(=O)OC(C)(C)C)C(C)C)C(C)C ... > 100 µM (inactive)
CCCCC1CC(c2cccc([N+](=O)[O-])c2)=NO1 (stereo not given) ... 43.1 µM (inactive)
S=C(NCCc1ccccn1)N/N=C(\c1ccccc1)c1ccccn1 ... 1.45 µM (inactive)
O=C1C2c3[nH]c4ccccc4c3[C@@H]3CCCCCCCCCCC3C2C(=O)N1c1ccccc1 (stereo not given in full) ... 78 µM (inactive)
NC(C(=O)O)C(O)c1c[nH]cn1 (stereo not given) ... > 100 µM (inactive)
Cc1ccc(NCC2CC/C(=C\c3ccc(Cl)cc3)C2=O)cc1 (stereo not given) ... 14.5 µM (inactive)
COC(=O)C1C=NNC1C(=O)OC (stereo not given) ... > 100 µM (inactive)

Query: Missing value: GI50, SK-MEL-5, entry Cc1ccc([N+](=O)[O-])cc1S(=O)(=O)Nc1ccc(C2=NN(c3ccc([N+](=O)[O-])cc3[N+](=O)[O-])C(c3cccs3)C2)cc1 (stereo not given) . Fill in?
Result: 11.5 µM (inactive)

Query: Missing value: GI50, SK-MEL-5, entry CCCCC/C=C1\CCC(CN(C)C)C1=O (stereo not given) . Fill in?
Result: 18.2 µM (inactive)
